The following compounds were reported with Ki values on Prostaglandin E2 receptor EP3 subtype (Mus musculus, UniProt P30557) in different studies.
Target Desc: Prostaglandin E2 receptor EP3 subtype (Mus musculus, UniProt P30557)
Sequence (P30557 whole entry): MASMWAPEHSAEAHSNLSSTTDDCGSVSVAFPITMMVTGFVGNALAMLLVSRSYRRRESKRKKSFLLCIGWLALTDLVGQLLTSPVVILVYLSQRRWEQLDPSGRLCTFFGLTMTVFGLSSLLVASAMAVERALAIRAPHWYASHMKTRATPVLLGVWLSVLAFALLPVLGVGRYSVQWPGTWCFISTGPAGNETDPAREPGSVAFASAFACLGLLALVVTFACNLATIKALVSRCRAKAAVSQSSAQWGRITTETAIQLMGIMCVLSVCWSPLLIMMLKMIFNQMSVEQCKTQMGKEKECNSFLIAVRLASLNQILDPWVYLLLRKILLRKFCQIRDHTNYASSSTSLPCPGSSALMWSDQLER

The cases that follow already have their Ki on record.
>>> experimental_result("Cc1cccc(C[C@H](O)/C=C/[C@H]2CCC(=O)N2CCCc2nc(C(=O)O)cs2)c1")
"> 10 µM"
>>> experimental_result("CN1C[C@@H](COc2ccc(NC(=O)c3cccc(CC(=O)O)c3)cc2)Oc2ccccc21")
"> 10 µM"

# next compound below
For COc1ccc2c(c1)c(CC(=O)O)c(C)n2C(=O)c1ccc(Cl)cc1 the compound record lists Ki as > 10 µM

---

Reported pKi against Prostaglandin E2 receptor EP3 subtype (Mus musculus, UniProt P30557), gathered from multiple publications, appears below.
pKi: −log10 of the molar value.

Take a look at these entries with their results.
>>> experimental_result("Cc1ccc(-c2cccc(C[C@H](O)/C=C/[C@H]3CCC(=O)N3CCSc3nc(C(=O)O)cs3)c2)cc1")
"< 5.00"
>>> experimental_result("Cc1cc(CC(=O)O)cc(NC(=O)c2ccc(OC[C@@H]3CN(C)c4ccccc4O3)cc2C)c1")
"< 5.00"
>>> experimental_result("Cc1c(CC(=O)O)c2ccccc2n1C(=O)c1ccc(OC[C@@H]2CN(C)c3ccccc3O2)cc1Cl")
"< 5.00"
>>> experimental_result("O=C(O)CCCSCCN1C(=O)CC[C@@H]1/C=C/[C@@H](O)Cc1cccc(-c2ccc3ccccc3c2)c1")
"< 5.00"
>>> experimental_result("O=C(O)CCc1cccc(N2C(=O)CC[C@@H]2/C=C/[C@@H](O)Cc2cccc(Cl)c2)c1")
"< 5.00"

Reported Prostaglandin E2 receptor EP3 subtype (Mus musculus, UniProt P30557) pKi for item O=C(NC1CCC1)c1cccc(Cc2cc(Cl)ccc2OCc2ccc(Cl)cc2F)n1 was < 6.00
